Target: CSF-1R (Homo sapiens (Human), UniProt P07333)
Sequence (P07333 20-972): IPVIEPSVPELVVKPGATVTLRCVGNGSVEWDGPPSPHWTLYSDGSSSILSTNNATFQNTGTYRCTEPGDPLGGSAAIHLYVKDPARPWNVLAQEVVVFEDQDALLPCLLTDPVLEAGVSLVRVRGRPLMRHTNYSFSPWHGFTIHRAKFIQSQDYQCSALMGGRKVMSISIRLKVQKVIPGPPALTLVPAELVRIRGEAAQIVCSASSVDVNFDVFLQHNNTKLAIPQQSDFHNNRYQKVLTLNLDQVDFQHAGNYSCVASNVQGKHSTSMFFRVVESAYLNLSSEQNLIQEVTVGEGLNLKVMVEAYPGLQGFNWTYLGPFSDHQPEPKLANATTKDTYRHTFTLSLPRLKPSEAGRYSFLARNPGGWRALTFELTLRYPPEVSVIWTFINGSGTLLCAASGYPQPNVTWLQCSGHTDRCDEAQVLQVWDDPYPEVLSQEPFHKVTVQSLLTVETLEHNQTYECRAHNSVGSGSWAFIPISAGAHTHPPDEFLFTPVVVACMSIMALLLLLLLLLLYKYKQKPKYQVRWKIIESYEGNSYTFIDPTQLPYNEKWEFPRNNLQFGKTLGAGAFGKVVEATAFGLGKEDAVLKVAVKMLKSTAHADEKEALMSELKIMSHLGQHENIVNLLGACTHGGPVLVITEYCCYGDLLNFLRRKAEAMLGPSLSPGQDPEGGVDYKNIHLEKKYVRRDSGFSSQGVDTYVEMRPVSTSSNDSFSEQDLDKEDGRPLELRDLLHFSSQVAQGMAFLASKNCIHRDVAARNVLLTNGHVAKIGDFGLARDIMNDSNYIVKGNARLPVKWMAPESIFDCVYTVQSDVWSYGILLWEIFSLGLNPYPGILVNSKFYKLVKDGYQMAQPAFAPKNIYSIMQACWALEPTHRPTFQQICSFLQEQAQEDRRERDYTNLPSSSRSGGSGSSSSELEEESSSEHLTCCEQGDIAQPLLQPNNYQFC
We begin with a simple list: items and their reported IC50.
Answer with a number only, understood to be in nM.

INSERT INTO measurements (molecule, testsystem, valueunit, resultnumber) VALUES
  ('N#Cc1c[nH]c(C(=O)Nc2cc(CO)c(C3CNS(=O)(=O)NC3)cc2C2=CCCCC2)n1', 'CSF-1R (Homo sapiens (Human), UniProt P07333)', 'nM', 10),
  ('CS(=O)(=O)N=C1NCC(c2ccc(NC(=O)c3nc(C#N)c[nH]3)c(C3=CCCCC3)c2)CN1 (stereo not shown)', 'CSF-1R (Homo sapiens (Human), UniProt P07333)', 'nM', 2);

GET /values?readout=IC50&item= N#CN=C1NCC(c2ccc(NC(=O)c3nc(C#N)c[nH]3)c(C3=CCCCC3)c2)CN1 (stereo not shown)
3
